target_system: NHERF4_1, Q86UT5-2
Sequence (Q86UT5 other isoform, or with tags, fused parts or gaps): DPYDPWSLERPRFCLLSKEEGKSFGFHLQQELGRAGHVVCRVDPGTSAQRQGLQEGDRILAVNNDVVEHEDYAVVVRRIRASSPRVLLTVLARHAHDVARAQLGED
assay_details: holdup assay
Set-up: key: below the threshold = too weak to quantify, mostly under pKd 3.1 to 4
setup_conditions: plain residues with an end cap or a label only (N-terminal biotin on a linker: ado-ado)
property: pKd

# example entries with known answers
[[record]]
binder = "KSRVAFFEEL [NF2, P35240;P35240-1]"
meas_value = 4.31

[[record]]
binder = "EPQYQPGENL [SRC, P12931]"
meas_value = 3.59

[[record]]
binder = "GIKKITSTAL [RPS6KA3, P51812]"
meas_value = 4.76

[[record]]
binder = "TNSRHGETTV [FZD2, Q14332]"
meas_value = "below the threshold"

[[record]]
binder = "NNNVVKVDSV [MTNR1A, P48039]"
meas_value = 3.51

[[record]]
binder = "KRPEMTSSSV [MUC3A, MUC3B, Q02505;Q9H195]"
meas_value = 3.58

[[record]]
binder = "ARGPPRESEV [FAM110D, Q8TAY7]"
meas_value = "below the threshold"

[[record]]
binder = "EDLEDEWEVI [TECPR2, O15040]"
meas_value = "below the threshold"

[[record]]
binder = "TRKRSGEAAV [PFKM, P08237]"
meas_value = "below the threshold"

[[record]]
binder = "SPDRDRESIV [SCN5A, Q14524]"
meas_value = "below the threshold"


Quick request: pKd for each listed item, please.
1. MHIQEKGFHV [EPHA6, Q9UF33]
2. QRPYRRGSEI [KCNJ18, B7U540]
3. ILRKSTTTTV [PRR16, Q569H4]
4. QKAPTKEFYA [SDC2, P34741]
5. SFISKKEWYV [NECTIN1, Q15223]

["below the threshold", "below the threshold", "below the threshold", 3.57, "below the threshold"]
